Test system: Artemia
Experiment: Toxicity in brine shrimp
Assay type: organism-based
Conditions: in vivo
Measurement name: LD50 (ppm)
Give bare numbers, in ppm.

>>> meas_value("C=C1C[C@@H]2O[C@@H]([C@H]3[C@@H]2C(C)=C[C@@H](OC(C)=O)[C@@H]3C(C)(C)OC(C)=O)[C@](C)(OC(C)=O)CC[C@@H]1OC(C)=O [ASTROGORGIN]")
1.8

For every item in the list below, what is its measured LD50?
1. CC(=O)O[C@]1(C)CC/C=C(\C)C[C@@H]2O[C@H]1[C@H]1[C@@H]2C(C)=CC[C@@H]1C(C)C
2. CC(=O)O[C@@H]1C=C(C)[C@H]2[C@@H]([C@H]1C(C)C)[C@@H]1O[C@H]2C/C(C)=C/CC[C@@]1(C)OC(C)=O [CALICOPHIRIN B]

### Response
0.3
1

Hey, just so you know, these numbers are from ChEMBL document CHEMBL1146392.
